- SYSTEM_UNDER_TEST: recombinant mouse Nape-pld (Mus musculus, UniProt Q8BH82)
- ASSAY_OVERVIEW: biochemical
pIC50: −log10 of the molar value.
MEASURE: pIC50

>>> data_value("Clc1cc(Cl)c(Cl)c(Cc2cc(Cl)cc(Cl)c2Cl)c1")
"< 3.70"

Please turn your attention to the following entry.
Looking for the measured pIC50 of COc1ccc(Cl)cc1Cc1cc(Cl)ccc1OC , can you help?
< 3.70

* * *

- SYSTEM_UNDER_TEST: recombinant mouse Nape-pld (Mus musculus, UniProt Q8BH82)
- ASSAY_OVERVIEW: PED-A1 hydrolysis kinetics, fluorescence
pKi: −log10 of the molar value.
MEASURE: pKi

Looking for the measured pKi of Oc1c(Cl)cc(Cl)c(Cl)c1Cc1c(O)c(Cl)cc(Cl)c1Cl , can you help?
~5.70

* * *

- SYSTEM_UNDER_TEST: recombinant mouse Nape-pld (Mus musculus)
- Sequence (Q8BH82 1-396): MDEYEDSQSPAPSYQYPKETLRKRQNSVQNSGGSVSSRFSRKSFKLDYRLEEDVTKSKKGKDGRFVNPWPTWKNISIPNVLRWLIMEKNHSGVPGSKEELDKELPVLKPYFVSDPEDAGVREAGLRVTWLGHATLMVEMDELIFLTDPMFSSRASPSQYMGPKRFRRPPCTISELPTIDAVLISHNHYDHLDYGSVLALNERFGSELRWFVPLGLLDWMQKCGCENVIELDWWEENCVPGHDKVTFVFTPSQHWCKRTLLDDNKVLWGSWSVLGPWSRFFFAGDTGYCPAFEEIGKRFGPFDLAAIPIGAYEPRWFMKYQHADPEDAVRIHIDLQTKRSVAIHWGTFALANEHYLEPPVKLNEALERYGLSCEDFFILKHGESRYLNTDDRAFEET
- ASSAY_OVERVIEW: PED-A1 hydrolysis, fluorescence, initial rate
- Format: biochemical
pIC50: −log10 of the molar value.
MEASURE: pIC50

Use the examples below as a reference point.
>>> data_value("Oc1ccc(Cl)cc1Sc1cc(Cl)ccc1O")
4.57
>>> data_value("Oc1cc(Cl)ccc1Oc1ccc(Cl)cc1Cl")
4.20

1 = Oc1c(Cl)cc(Cl)cc1C(c1cc(Cl)cc(Cl)c1O)C(Cl)(Cl)Cl
2 = Oc1ccc(Cl)cc1Cc1cc(Cl)ccc1O
Consider entries 1 and 2 . Which has the numerically lower pIC50? Let me know the label of the one you choose.
2
(2: 4.63, 1: 5.55)

* * *

Target sequence: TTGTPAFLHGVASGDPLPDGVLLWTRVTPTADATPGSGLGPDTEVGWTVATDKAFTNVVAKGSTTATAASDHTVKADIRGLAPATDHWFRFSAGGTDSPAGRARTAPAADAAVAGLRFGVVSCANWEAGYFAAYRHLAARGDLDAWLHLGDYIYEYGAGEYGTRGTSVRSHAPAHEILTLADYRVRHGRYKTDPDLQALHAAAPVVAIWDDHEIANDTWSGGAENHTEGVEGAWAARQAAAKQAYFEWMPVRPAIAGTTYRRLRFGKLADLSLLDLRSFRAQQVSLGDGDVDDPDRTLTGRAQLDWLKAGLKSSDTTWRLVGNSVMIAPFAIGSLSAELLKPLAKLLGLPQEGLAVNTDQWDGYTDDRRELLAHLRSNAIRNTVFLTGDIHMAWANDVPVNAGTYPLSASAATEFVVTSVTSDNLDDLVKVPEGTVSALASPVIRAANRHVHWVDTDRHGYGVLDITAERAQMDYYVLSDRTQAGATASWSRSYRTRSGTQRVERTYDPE
MEASURE: pIC50
The read-out pIC50 is expressed as -log10 of concentration in moles per litre.

Looking for the measured pIC50 of Oc1c(Cl)cc(Cl)c(Cl)c1Cc1c(O)c(Cl)cc(Cl)c1Cl [Inh 1, hexachlorophene] , can you help?
3.83

Entry source: paper doi:10.1101/2020.03.05.979567v1
